Listing of recorded Phytotoxicity Stunting by entry.
# Test system: basil 'Genovese'
# procedure-details: Visual injury of basil after insecticide, fungicide, PGRs, safeners (Example 4)
# protocol-conditions: 7 DA-A, rates g ai/ha: chlropyrifos 3370, chlorothalonil 7900, paclobutrazol 9.7, mepiquat-chloride 37, Isoxadifen 16, Napthalic anhydride 527, + NIS 0.25 % v/v
endpoint-label: Phytotoxicity Stunting (%)

>>> value_measured("N#Cc1c(Cl)c(Cl)c(Cl)c(C#N)c1Cl")
5
>>> value_measured("CCOC(=O)C1=NOC(c2ccccc2)(c2ccccc2)C1")
7
>>> value_measured("C[N+]1(C)CCCCC1 [mepiquat-chloride]")
5
>>> value_measured("O=C1OC(=O)c2cccc3cccc1c23 [napthalic anhydride]")
5
>>> value_measured("CCOP(=S)(OCC)Oc1nc(Cl)c(Cl)cc1Cl")
13
>>> value_measured("CC(C)(C)[C@@H](O)[C@@H](Cc1ccc(Cl)cc1)n1cncn1 (racemic)")
2
